This collection of values is drawn from PubChem BioAssay AID777.

Target: Cytochrome P450 2C9 (Homo sapiens) (UniProt P11712)
Sequence (P11712 whole entry, looked up): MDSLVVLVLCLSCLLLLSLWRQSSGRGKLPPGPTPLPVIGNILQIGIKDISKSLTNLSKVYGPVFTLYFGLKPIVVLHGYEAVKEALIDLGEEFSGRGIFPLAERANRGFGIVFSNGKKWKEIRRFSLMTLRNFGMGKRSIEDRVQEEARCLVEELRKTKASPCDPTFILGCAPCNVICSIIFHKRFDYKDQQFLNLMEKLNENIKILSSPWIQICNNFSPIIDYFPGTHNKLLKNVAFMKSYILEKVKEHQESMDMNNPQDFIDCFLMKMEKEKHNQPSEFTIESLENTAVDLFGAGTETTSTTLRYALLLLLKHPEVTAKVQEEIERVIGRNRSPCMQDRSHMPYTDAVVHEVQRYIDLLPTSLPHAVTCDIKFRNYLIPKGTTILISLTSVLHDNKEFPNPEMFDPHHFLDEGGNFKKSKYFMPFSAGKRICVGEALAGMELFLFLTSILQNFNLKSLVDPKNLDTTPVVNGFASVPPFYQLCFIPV
Test: blockers of cytochrome P450 2C9 activity – biochemical, luminescence, ADME assay, primary screen (AID 777)
Conditions: CYP2C9 Supersomes, luciferin-H conversion, at 5 µM, stronger effect = higher value
Hit rate of the full screen: of about 96,000 compounds, about 19,000 (20%) were called active. A selection follows.
Reported inhibition values for the following compounds.
# output: bare number, implied unit %

Consider the worked cases shown below.
compound	result
COC(=O)CNC(=O)c1ccc2c(c1)S(=O)(=O)c1ccccc1C2=O	-14.1
O=C(CCN1C(=O)C2C3C=CC(C3)C2C1=O)Nc1ccccc1F (stereo unspecified)	-2.2
O=C(NC1CCC(O)CC1)c1ccc(S(=O)(=O)NCc2ccco2)cc1 (stereo unspecified)	5
COc1ccc(S(=O)(=O)NC(CC(=O)NCc2ccccc2OC)c2ccco2)cc1 (stereo unspecified)	-43.6
COc1ccc(CCNS(=O)(=O)c2ccc(Cl)s2)cc1OC	87.3

Query string: Need inhibition, item CCS(=O)(=O)NCCc1ccc(OC)c(OC)c1
Result string: 0.1

Query string: Look up inhibition for this compound: COc1ccc(-c2cc(C(=O)NCc3ccco3)no2)cc1OC
Result string: -47

Query string: What does the record list as inhibition for COc1ccc(CCNS(=O)(=O)c2ccc(C(=O)NCc3ccco3)cc2)cc1OC ?
Result string: 71.8

Query string: # get_value(readout='inhibition', item= Cc1ccccc1Nc1nc(N)nc(CN2CCN(c3ccccn3)CC2)n1 )
Result string: 23.8

Query string: Item under review: COc1ccc(CCNc2ncnc3nc[nH]c23)cc1OC . Reported inhibition?
Result string: 8.9

Query string: Name the recorded inhibition for CCN1C(=O)c2cccc3c(N)ccc1c23 .
Result string: 7.7

----------
Biological target: Cytochrome P450 2C9 (Homo sapiens) (UniProt P11712)
Assay: blockers of cytochrome P450 2C9 activity – biochemical, luminescence, ADME assay, primary screen (AID 777)
Conditions: CYP2C9 Supersomes, luciferin-H conversion, at 5 µM
Hit rate of the full screen: of about 96,000 compounds, about 19,000 (20%) were called active.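 How the source made its calls: active means blocking of liver enzyme CYP2C9 beyond about 50% at 5 µM (limit read from the data); inactive means the rest.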 Only a sample is shown.
Hello, when you answer, please use one of the following outcomes: 1 (active), 0 (inactive)

compound	discrete.label
CCNC(=O)NC(=O)C(C)OC(=O)c1cc(S(=O)(=O)N2CCCCCC2)ccc1OC (stereo unspecified)	1
O=C(OCC(=O)N1CCN(C(=O)c2ccco2)CC1)c1ccccc1Cc1ccccc1	0
Cc1c(C(=O)CN2CCOCC2)[nH]c2ccccc12	0
CCOC(=O)C1CCN(C(=O)C2CCN(S(=O)(=O)c3c(C)noc3C)CC2)CC1	0
N#Cc1cc([N+](=O)[O-])ccc1Oc1cccc(/C=N/NC(=O)c2ccc(Cl)cc2)c1	1

Query string: Dear all, I need the recorded test outcome for O=P(c1cccs1)(c1cccs1)c1cccs1 , thank you.
Result string: 0

Query string: # outcome recorded in this test, key = CCCNC(=O)CN(Cc1ccccc1F)S(=O)(=O)c1ccc(C)cc1
Result string: 1

----------
Molecular target: Cytochrome P450 2C9 (Homo sapiens) (UniProt P11712)
Assay: blockers of cytochrome P450 2C9 activity – biochemical, luminescence, ADME assay, primary screen (AID 777)
Settings: CYP2C9 Supersomes, luciferin-H conversion, at 5 µM
The whole screen tested about 96,000 compounds, of which about 19,000 (20%) were called active.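 The calls were made as follows: active = blocking of liver enzyme CYP2C9 beyond about 50% at 5 µM (limit read from the data); inactive = the rest.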 A selection follows.
Write down the outcome that applies. Available outcomes: 1.0 (active), 0.0 (inactive)

Known results for compounds:
compound	discrete.label
CC(NC(=O)c1ccco1)C(=O)Nc1nc(-c2ccccn2)cs1 (stereo not drawn)	0.0
CCOC(=O)C1C(=O)NC(N2CCN(c3ccccc3)CC2)=NC1c1ccco1 (stereo not drawn)	0.0
CCOc1ccc(Nc2nc(Cc3nnc(SCC(=O)NC4CCCC4)n3C)cs2)cc1	1.0

Query string: Any idea what this test logged for CCOC(=O)c1c(N)sc(C(C)=O)c1C ?
Result string: 0.0

Query string: Any idea what this test logged for CC1=C(C(=O)Nc2ccccc2)C(c2ccco2)C(C#N)=C(SCC(N)=O)N1 (stereo not drawn) ?
Result string: 0.0

Query string: Dear all, I need the recorded test outcome for CCOc1ccc(C(=O)NC2CCN(S(=O)(=O)CC)CC2)cc1 , thank you.
Result string: 0.0

----------
Target: Cytochrome P450 2C9 (Homo sapiens)
Assay: blockers of cytochrome P450 2C9 activity – biochemical, luminescence, ADME assay, primary screen (AID 777)
Conditions: CYP2C9 Supersomes, luciferin-H conversion, at 5 µM, stronger effect = higher value
Hit rate of the full screen: of about 96,000 compounds, about 19,000 (20%) were called active. Not all results are given here.
Known inhibition of a selection of compounds
# output: bare number, implied unit %

Below: 5 compounds and their reported inhibition.
compound	inhibition / %
COCC(C)NC(=O)c1ccc(-n2nc(C(F)(F)F)cc2-c2cccs2)cc1 (stereo not given)	36.8
Cc1cc2c(=O)n(C)c(SCC(=O)c3cc4ccccc4o3)nc2s1	95.9
Cc1ccsc1C(=O)OCC(=O)c1cc2ccccc2o1	-30.4
Cn1c(=NC(=O)CSCC(=O)N2CCOCC2)sc2ccccc21	-13.1
O=c1c2ccccc2c(-c2ccc(F)cc2)nn1-c1ccc(C(F)(F)F)cc1	-2.7

Query string: Return reported inhibition; argument: CN(C)/C(CN1CCCCC1)=C1\N=C(c2ccccc2)OC1=O
Result string: 20.2

Query string: What value of inhibition has been reported for the following compound? COc1ccc(Br)cc1S(=O)(=O)N1CCN=C1C
Result string: -27.3

Query string: I have this compound here, Cc1ccc(C(=O)CSc2nc3ccccc3c(=O)n2N)o1 , and I need its recorded inhibition.
Result string: 34.2

Query string: Given the entry CCOC(=O)c1c(C)[nH]c(C(=O)NCc2ccccc2OC)c1C , report its measured inhibition.
Result string: 78.3

Query string: // returns reported inhibition for input N=c1c2c3c(sc2ncn1CCCN1CCOCC1)CCCCC3
Result string: 6.9

Query string: Any idea what its inhibition is? The compound is Fc1ccccc1OCCSc1nc2ccccc2o1
Result string: 21.5

Query string: # query: inhibition of entry COc1cccc(OCCOc2cccc(/C=N/n3cnnc3)c2)c1
Result string: 40

Query string: # lookup: inhibition of COc1ccccc1CNC(=O)c1ccc(SC)cc1OC
Result string: -50.7

Query string: Fill in: inhibition of Cc1ccc(F)cc1NC(=O)Cc1nn(C)c(=O)c2ccccc12 is ___
Result string: 30.2

Query string: Looking for the measured inhibition of C1=C(N2CCOCC2)/C(=C/c2nc3ccccc3[nH]2)CC1 , can you help?
Result string: 11.9

Query string: Request the reported inhibition associated with Cc1nc(NCc2ccccc2)c(C(N)=O)c2c1COC(C)(C)C2
Result string: 2.7

Query string: Item under review: C=CCOc1ccc(/C=N/n2cncn2)cc1OC . Reported inhibition?
Result string: 57.5

Query string: Look at this compound and give its reported inhibition. CC1(C)Cc2c(C#N)c(SCc3nc4ccccc4[nH]3)nc(N3CCOCC3)c2CO1
Result string: 96.2

Query string: Tell me the measured inhibition of c1ccc2[nH]c(NCCN3CCOCC3)nc2c1 , please.
Result string: -29.7

Query string: Fill in the blank: the reported inhibition of Cc1c(-c2nn(C)c(=O)c3ccccc23)oc2ccc(F)cc2c1=O is ____.
Result string: 85.2

Query string: Using the record for Nc1nc(SCCOc2ccccc2)n[nH]1 , report its inhibition.
Result string: -8.6

Query string: Reported inhibition for O=c1c2ccccc2nc2n1C(CSCc1cccc(C(F)(F)F)c1)CS2 (stereo not given) : what is it?
Result string: 38.6

Query string: Given CNS(=O)(=O)c1cnccc1N1CCN(c2cccc(C)c2)CC1 , state its recorded inhibition.
Result string: 57.7

Query string: Which measured inhibition value corresponds to CC(=O)N1Cc2ccccc2CC1C(=O)O (stereo not given) ?
Result string: -18.6

Query string: Could you tell me which inhibition is on file for CN(C)c1ccnc(Oc2ccc(F)cc2)c1C#N ?
Result string: 40.8

----------
Parameter inhibition: see the listing below.
Molecular target: Cytochrome P450 2C9 (Homo sapiens) (UniProt P11712)
Test: blockers of cytochrome P450 2C9 activity – biochemical, luminescence, ADME assay, primary screen (AID 777)
Conditions: CYP2C9 Supersomes, luciferin-H conversion, at 5 µM, stronger effect = higher value
About 19,000 (20%) of roughly 96,000 compounds were called active. Not all results are given here.
Field: numeric (%). Do not append units.

Query string: Query: inhibition; subject: CCOC(=O)Cn1c(-c2cccnc2Cl)nc2ccccc21
Result string: 10.6

----------
Listing of recorded inhibition by entry.
Target: Cytochrome P450 2C9 (Homo sapiens) (UniProt P11712)
Assay: blockers of cytochrome P450 2C9 activity – biochemical, luminescence, ADME assay, primary screen (AID 777)
Conditions: CYP2C9 Supersomes, luciferin-H conversion, at 5 µM, stronger effect = higher value
In all, about 96,000 compounds went through this assay and about 19,000 (20%) were called active. Not all results are given here.
Field format: number, assumed %, no unit text.

chemical.structure	inhibition, %
O=C(Nc1ccc(Sc2ccc(Br)cc2)cc1)c1ccco1	3.3
COc1ccc2nc(SCC(=O)Nc3c(C)cc(C)cc3C)[nH]c2c1	81.5

Query string: Endpoint output: inhibition of COc1ccc(NC(=O)CSc2nc(N)c(-c3ccccc3)c(=O)[nH]2)cc1 . Value?
Result string: 3.1

Query string: Would you mind telling me what inhibition value was observed for COc1ccc(OC)c(NC(=O)CSc2nc(N)c(-c3ccccc3)c(=O)[nH]2)c1 ?
Result string: 29.2

Query string: Give its inhibition value. Item: CN1CCN(c2ccc(NC(=O)COc3ccc(Cl)cc3Cl)cc2)CC1
Result string: -16.8
